Sourced from ChEMBL document CHEMBL2218924

Kindly supply the reported residual activity values for the records listed here.
# ASSAYED_TARGET: MAP kinase-activated protein kinase 5 (Homo sapiens)
# RECORDED_CONDITIONS: at 1 µM
Answers are plain numbers, in %.

Please review the entries below; each comes with its answer.
CC(=O)O/N=C1\C(=C2\C(=O)Nc3cc(Br)ccc32)Nc2ccccc21 ... 105
O=C1Nc2cc(Br)ccc2/C1=C1/Nc2ccccc2/C1=N\O ... 76
O=[N+]([O-])c1ccc(-c2nc(-c3ccc(F)cc3)c(-c3ccncc3)[nH]2)cc1 ... 112
Cc1ccc(NC2=CC(=O)c3sc(C)nc3C2=O)cc1 ... 110

Give me residual activity for each of these molecules, listed below.
1. O=C1c2ccccc2-[n+]2ccc3c([nH]c4ccccc43)c21
2. C[C@@H](N)[C@H]1CC[C@H](C(=O)Nc2ccncc2)CC1
3. O=C1Nc2ccc(Br)cc2/C1=C\c1cc2c([nH]1)CCCC2
4. CCC(=O)Nc1ccc2ncnc(Nc3cccc(Br)c3)c2c1
5. c1ccc(-c2n[nH]cc2-c2ccnc3ccccc23)nc1

1: 119; 2: 112; 3: 82; 4: 74; 5: 73

For each of the items listed, what is its residual activity?
1. O=C(O)c1ccc2c3c1cccc3c(=O)n1c3ccccc3nc21
2. Oc1n[nH]c2nnc(-c3c(-c4ccccc4)nn4ccccc34)cc12

[81, 115]
